Assay: folding stability dG unfold from chymotrypsin proteolysis; higher = more stable
Where folding stability dG unfold equals or exceeds 2 kcal/mol, the correct label is Condition met; where it does not, the label is Condition not met.

Decide: folding stability dG unfold of SAGGLTPEQWREIAKNFANELAKEYQERGPNVKIDVEVDPEEGYFKIKVENNDENMPRTITIPWDDIRSAGG [r13_354_TrROS] >= 2 kcal/mol?
Condition not met

Lookup SAMRIVVPYRETLRLTGLPEDTPLEEFRERFERIFRRLMERGVRPVRIEIYEIGDERYIVVEIETPGGASAG [r14_158_TrMRF]
Condition met

And then SMREIPPEDLKKAANAYLNGDKEKVEQLFKDAGFKKVVLEEVEGDGEVLFVALVEHPDGPTVLTVSSSDFSA [r9_783_TrMRF] , what is it?
Condition not met

Follow-up entry: SAGGSAGGSAGGMPIPIIVIPTPPNGNFTPEQIKEVAEKLNDPVVLTEESDNSRVILVGSAGGSAGGSAGGS [r10_642_TrMRF]
Condition not met

What do we get for SAGGSAGGSAGGPKGYFRIRIEIPNGQKREIWFPPDDAEEWVKSLGIPEENVKITKIEPYSAGGSAGGSAGG [r7_211_TrROS] ?
Condition not met

What do you get for SAGGSAGGSDKVVEFTFKIPSKDITAEDIAKAVKEAFPGVKKIEVTLYPGEGTAKVKVYLEPSSAGGSAGGS [r20_31_TrMRF] ?
Condition met

Same question for SAGGSAGGSAGGGPAKALITSPDGSKAEATVTVDTATGTVTLTVENASLPPDWKLELLGSAGGSAGGSAGGS [r10_306_TrMRF] please.
Condition not met

SAGGSAGGSAGGLPKPVTVTLSRPEGGETLTLTFPSGTTPEEVRAAVEAEPDLSILSISSSAGGSAGGSAGG [r7_624_JUSTAS] , same question.
Condition not met

Same lookup for SAGGMKPGESSTVPPVVERTTSPDSLGNPRYTVTRVTEITVTYFPDSINVTVTTETTVVSTATPGLLSAGGS [r8_70_JUSTAS] , please.
Condition not met

// query: SAGGSAGGSSGTVTLRLRFRVVDLDPATGEASEHEFELTLTVPIELPAAAPPATPTYGLTLPGSAGGSAGGS [r12_140_TrMRF]
Condition met

Continue with SAGKIEKIVITKKKDGYVIKVYYKDNKKVKTYKAGKTLEEIKKKLEEEGFEIVKVEVKKVKPGEKVEISAGG [r19_386_TrROS_Hall]
Condition met

Another sequence: SAGGSAGGSAPWYIAIYMPGNGRKRTYPFKSADDIKEEIKEHLGPGMNPDNVEIKIIPPDDISAGGSAGGSA [r18_350_TrROS]
Condition not met

# iterate: SAGGSAKKKEKKVEKKVITIEVEPGVKTPEEMLEAIRKLKEEYPDTKIIIKASDEQKEALKRLLKESAGGSA [r15_89_TrROS_Hall]
Condition not met

Next up: SNLMIHFENPDNGVRVMIQINPEHGRIKLSVMYPNGKPVAEQTIEVDPNKIRLRFKVGGRKFEIEIEIPESA [r9_385_TrROS]
Condition met

And for SAGGSVEVEPLPNGLLRVTTVFSESKTPILRKLTYKDENGKPLGTKLELLPEEVEVESVTELLPPELLSAGG [r13_848_JUSTAS] ?
Condition not met

Moving on to the next sequence: SAGGSAGGSAGGKKKFGFLILVKNKDDEKLYLVEVPEELSLEEFLPDQEIDEEVIKKAIGSAGGSAGGSAGG [r17_412_TrMRF]
Condition not met

Try SAGGSAGGSAGGSRMRLEITVRDENGLLVRLEVEFEEKDGELEMKVRAEVFPLPEEEEESAGGSAGGSAGGS [r4_168_TrROS_Hall] next.
Condition met

Moving on to the next sequence: SAGGSAGGSAGGSDGALIFIIHIKMEMELEPNPDGPPKWDMDWDIEPTWIQIDDPEDFKSAGGSAGGSAGGS [r4_450_TrROS]
Condition met

Queued: SAGGSATPKDPDGKEWKPIAVIDIEEMRPETLKELLEENKGPIWIHPPGEGKPFWIPADEIEDMIDSAGGSA [r15_904_TrROS]
Condition not met

Next sequence: SAGGARFEFTTPEGDRVTVELETTADELRVRVTVHRENEPFTLEATFPLPPPAPPAVPADVPGPSLLLSAGG [r13_691_TrMRF]
Condition not met

And SAGEATVEKLEDGYVVVFKDGSVAFLPAVPPAVPVVEIPFKDPEEGRRAVEELGADVLDIGDDSIVVAGSAG [r5_328_TrMRF] ?
Condition not met

Try SYTLEFEDITLKPVEPGTKISIPGYVKYDGVLYKVTEVTYDPEKGTITITIKVEPEGKPKTLTITIPIPPPS [r1_47_JUSTAS] next.
Condition not met

Record: SAGGSAGGSAKKKYVFTIPVKPNTFNPEKLKKFIEKAFPEFKNYEIKVEVLPDGTAKVYIEASAGGSAGGSA [r18_65_TrMRF]
Condition met

Again, but for SAGMVRIERDGDELLIEFEFPEDEPEAVRALIEAIESLGLEVVEAEIEAEPGEGDLRRVRLRFKIKPLESAG [r5_739_TrMRF]
Condition met

Quick one: SAGGISVEIYPPNGKKVELEGDTIPELMDKFPPGGNYVIKIEQPHVNPGNGKKQPMEMEFRVPPDDFSAGGS [r16_806_TrROS]
Condition not met

* * *

Experiment: folding stability dG unfold from trypsin proteolysis; higher = more stable
MEASUREMENT TYPE: folding stability dG unfold
Hi, when you answer, please include the unit after the number. Thanks!

Reported folding stability dG unfold for SAGGSAGGSAGGMLTIVEVLSKDPEKPVYTVKVKFPDGSEKTLEVPPELLSNPEKEIVLESAGGSAGGSAGG [r7_117_JUSTAS] : what is it?
1.23 kcal/mol

Also SAGGSKKTLTITVKNKETGETVKIKVELTPDGKKIKITIVAKKEEEAKEAAKKLLEELGYKVEIVPSAGGSA [r2_30_TrROS_Hall] , if possible.
3.15 kcal/mol

Next entry: SAGGKKKKIKPKEIKVRIIIEKDGKKIEIELSEEELEKIKKAPTLEEIIKELEKKGFKIVKIEIEKKSAGGS [r16_567_TrROS_Hall]
1.19 kcal/mol

# repeat for SAGGSEEFELEFRVEAASPEEAEALAEEIRKRLEDLGLDVEVEAETLEPGAVVVRPRVRVDPETGRLDSAGG [r13_697_TrMRF]
0.126 kcal/mol

Next sequence: SIYIKIPIDEIKPEWNKNGMITLEIKYPNGKTIKFEFPPGFQIDNIEVIKPGWIMFEFEIVPPADPEDAKSA [r9_501_TrROS]
1.76 kcal/mol

Same for SAGGSAKVKYKKDKNGNTYPVVEEKKKIKLTVKIKIFDKNGKLVKEITFPANMTLEEIEKEIKKLLSAGGSA [r15_309_TrROS_Hall]
1.16 kcal/mol

Same question for SMSTNLVVKEKLIPPGVLVVTYKKDGKPVKVETKVVVIPPQLVVEEVLYPGGKLALKTYDPLTGTPSFELSA [r9_343_JUSTAS] please.
-0.122 kcal/mol

* * *

Assay: folding stability dG unfold (combined trypsin and chymotrypsin); higher = more stable
MEASUREMENT TYPE: folding stability dG unfold (kJ/mol)
Please give a number only; it is taken to be in kJ/mol.

Which value of folding stability dG unfold has been reported for SAGMEELAEELAKELEGEGLKVEVEVDPETGVVTVTAYSPESVTVVTITQDPNNDAFTVNTTTYPPLLSAGG [r19_2_JUSTAS] in the records?
12.7

Ok, now SAGGSAGGSAGGSMVLTTTVEETVVDENGVETKITVKTYKLPDSEITLVTFPDGTVTPESAGGSAGGSAGGS [r10_404_JUSTAS]
2.06

Next: SAGGSKVRIEVEELPDGTVKVTAEVEVDGVLYKIEAEFRINEDGEIVEMKVKIEARPLPPPPPPEESAGGSA [r2_474_TrROS_Hall]
16.4

What do you get for AAPEGAVVTFDDKEITVAPDETLYLVNGKLYTKSEIPAVLKQLSPETEYTELTVAGDTGEVETETKHIYRPS [r1_304_JUSTAS] ?
5.25

Try this sequence too: SAGGSAGGMEVPPDQRVLVLDVEGTPEAIEAFAEELVRRGFDKPVAVVAVDPETGKVTIVVPEDSAGGSAGG [r6_652_TrMRF]
4.53

Further, for SAGGSAGGSAGMTLEIEVDPDNKVIELKIYIGGKPVEMTIVVTPNSGYIRIPDGGWIPIESAGGSAGGSAGG [r11_395_TrROS] ?
11.9

Moving on to the next sequence: SAGGSAGGSAGMYVYKITYPTPSGGASEKLYPSSVPLEEVLKEAEERGAVEIEILPESELSAGGSAGGSAGG [r11_490_JUSTAS]
0.479
